System: U2OS
Assay: Multiplex assay against U2OS
Type: toxicity, cell-based
Conditions: human, 48 h, 10 µM, compound concentration 10 uM, replicate 2
attribute_measured: Population Healthy Nuclei (%)
Respond numerically; units are % and should not be typed.

Consider the reported Population Healthy Nuclei (%) for these compounds:
compound="CC(C)(C)NC[C@H](O)COc1nsnc1N1CCOCC1 [TIMOLOL]" measured_result=91
compound="CC1=C(C(=O)Nc2cc3cn[nH]c3cc2F)C(c2ccc(C(F)(F)F)cc2)CC(=O)N1 (centres undefined)" measured_result=76

Provide the documented Population Healthy Nuclei (%) with U2OS as the system for Cc1cccc(CN2CCN(C(c3ccccc3)c3ccc(Cl)cc3)CC2)c1.Cl.Cl (centres undefined) 71

Provide the documented Population Healthy Nuclei (%) with U2OS as the system for "CNC(=O)Nc1ccc(-c2nc(N3CC4CCC(C3)O4)c3cnn(C4CCC5(CC4)OCCO5)c3n2)cc1" 29
